Measured values drawn from paper PMC10570711 for this set.

- target entity: T1, MBP-USF2 E244A (Homo sapiens, UniProt Q15853 235-346, E244A)
- T1 sequence: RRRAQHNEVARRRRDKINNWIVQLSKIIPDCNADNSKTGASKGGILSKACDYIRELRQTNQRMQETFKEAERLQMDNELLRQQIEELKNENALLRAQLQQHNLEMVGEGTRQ
- protocol notes: fluorescence anisotropy; FA: 20 nM FAM-DNA, 20 mM Tris pH 8.0, 50 mM KCl, 2 mM MgCl2, 0.5% glycerol, 4 C, 3 h; EMSA: 100 nM Cy3-DNA, 10 mM Tris pH 8.0, 50 mM KCl, 1 mM DTT, 2 mM MgCl2
- details: protein: recombinant; tags: 6xHis-MBP N-terminal; chain copies: 2; label: 5'-FAM on strand 1; blunt as printed if S3 is read 3'-5' (printed with 5'-3' labels)
outcome measure: Kd (nM)

INSERT INTO measurements (binder, unit, measured_result) VALUES
  ('FAM E-box DNA (dsDNA) DNA 1: GACGGGCACGTGACGCGC DNA 2: GCGCGTCACGTGCCCGTC', 'nM', 72);
